A collection of compounds and their measured pEC50
# test.system: human β3-adrenergic receptor (Homo sapiens)
# Construct: A full-length human β3 gene is obtained from a human genomic library (made by Clontech) using this as the probe
# measurement.protocol: Test Case 1-B: human β3-adrenergic receptor agonist activity (cAMP-Screen, 96-well)
# particulars: Test Case 1-B; CHO cells, cAMP
Recall that pEC50 is obtained by taking minus log10 of the concentration measured in molar.

# annotated cases, reported pEC50 shown
| compound | test.system | pEC50 |
| --- | --- | --- |
| CCc1n[nH]c2cc(OCCNC[C@H](O)c3cccc(NS(=O)(=O)c4cccc(C)c4)c3)ccc12 | human β3-adrenergic receptor (Homo sapiens) | 7.85 |
| COc1n[nH]c2cc(OCCNC[C@H](O)c3cccc(NS(=O)(=O)c4cccc(Cl)c4)c3)ccc12 [ex13] | human β3-adrenergic receptor (Homo sapiens) | 8.03 |
| COc1n[nH]c2cc(OCCNC[C@H](O)c3cccc(NS(=O)(=O)c4cccs4)c3)ccc12 [ex2] | human β3-adrenergic receptor (Homo sapiens) | 8.46 |

Then there is this compound:
Task: Fill blank: measured pEC50 of the compound COc1n[nH]c2cc(OCCNC[C@H](O)c3cccc(NS(=O)(=O)C4CC4)c3)ccc12 [ex47] is ____.
Output: 7.39

###

# Tested on: pentobarbital-anesthetized rats
# measurement.protocol: Test Case 9: effects on the blood pressure and heart rate in pentobarbital-anesthetized rats
# Type: in vivo, rat
# particulars: anesthetized male SD rats; 3 mg/kg intravenous over 30 seconds; maximum change, mean±standard deviation
observable: increase in MBP (%)
Please state the figure in %; there is no need to write the unit.

Task: Fill blank: measured increase in MBP (%) of the compound CCc1n[nH]c2cc(OCCNC[C@H](O)c3cccc(NS(=O)(=O)c4cnn(C)c4)c3)ccc12 is ____.
Output: 5.6

###

# test.system: human β3-adrenergic receptor (Homo sapiens, UniProt P13945)
# Construct: A full-length human β3 gene is obtained from a human genomic library (made by Clontech) using this as the probe; expressed in transfected cells; host or cells: CHO (Chinese hamster ovary) cells, pcDNA3
# Sequence (P13945 whole entry): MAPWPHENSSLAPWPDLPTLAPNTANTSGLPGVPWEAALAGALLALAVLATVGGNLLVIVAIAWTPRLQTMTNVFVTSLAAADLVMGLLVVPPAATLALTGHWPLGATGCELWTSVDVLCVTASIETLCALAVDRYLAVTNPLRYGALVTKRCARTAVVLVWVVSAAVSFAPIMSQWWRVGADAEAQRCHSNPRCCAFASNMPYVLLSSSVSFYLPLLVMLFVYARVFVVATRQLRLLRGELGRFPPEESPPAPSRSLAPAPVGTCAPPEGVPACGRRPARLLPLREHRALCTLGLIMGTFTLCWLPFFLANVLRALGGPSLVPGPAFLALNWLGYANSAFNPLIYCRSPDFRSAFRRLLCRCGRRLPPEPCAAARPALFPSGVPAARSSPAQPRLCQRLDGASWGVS
# measurement.protocol: Test Case 1-B: human β3-adrenergic receptor agonist activity (cAMP-Screen, 96-well)
# Format: cell-based
# particulars: 0.5 h; read-out: β3 receptor I.A.
A collection of compounds and their measured Emax
Please state the figure in %; there is no need to write the unit.

# annotated cases, reported Emax shown
| compound | Emax / % |
| --- | --- |
| Cc1n[nH]c2cc(OCCNC[C@H](O)c3cccc(NS(=O)(=O)c4ccccc4N)c3)ccc12 [ex53] | 98 |
| Cc1n[nH]c2cc(OCCNC[C@H](O)c3cccc(NS(=O)(=O)c4cn(C)cn4)c3)ccc12 [ex50] | 18 |
| COc1n[nH]c2cc(OCCNC[C@H](O)c3cccc(NS(=O)(=O)C4CC4)c3)ccc12 [ex17] | 70 |
| Cc1cccc(S(=O)(=O)Nc2cccc([C@@H](O)CNCCOc3ccc4c(C)n[nH]c4c3)c2)c1 [ex49] | 96 |
| CCc1n[nH]c2cc(OCCNC[C@H](O)c3cccc(NS(=O)(=O)c4ccsc4)c3)ccc12 [ex123] | 50 |
| O=S(=O)(Nc1cccc([C@@H](O)CNCCOc2ccc3c(CO)n[nH]c3c2)c1)C1CCC1 [ex243] | 72 |

Task: Fill blank: measured Emax of the compound O=S(=O)(Nc1cccc([C@@H](O)CNCCOc2ccc3c(C(F)(F)F)n[nH]c3c2)c1)c1ccccc1F [ex189] is ____.
Output: 91

Task: Fill blank: measured Emax of the compound CCc1n[nH]c2cc(OCCNC[C@H](O)c3cccc(NS(=O)(=O)C4CCC4)c3)ccc12 [ex150] is ____.
Output: 85

Task: Fill blank: measured Emax of the compound Cc1n[nH]c2cc(OCCNC[C@H](O)c3cccc(NS(=O)(=O)c4cccc(C(F)(F)F)c4)c3)ccc12 [ex65] is ____.
Output: 65

Task: Fill blank: measured Emax of the compound O=S(=O)(Nc1cccc([C@@H](O)CNCCOc2ccc3c(C4CCC4)n[nH]c3c2)c1)C1CCC1 [ex233] is ____.
Output: 73

###

A collection of molecules and their measured number of experimental animals matching Score 0.5
# Test system: Male C57BL/6 Cr mice
# measurement.protocol: Test Case 10: mouse piloerection test
# Format: in vivo
# particulars: 10 mg/kg i.v., n=4, observation time 30 min, Score 0.5
The answer should be a number; do not append a unit.

# annotated cases, reported number of experimental animals matching Score 0.5 shown
| given.smiles | recorded.measurement |
| --- | --- |
| O=S(=O)(Nc1cccc([C@@H](O)CNCCOc2ccc3c(OC(F)F)n[nH]c3c2)c1)C1CC1 | 1 |
| COc1n[nH]c2cc(OCCNC[C@H](O)c3cccc(NS(=O)(=O)c4ccccc4F)c3)ccc12 | 2 |
| CCc1n[nH]c2cc(OCCNC[C@H](O)c3cccc(NS(=O)(=O)C4CC4)c3)ccc12 | 2 |
| Cc1n[nH]c2cc(OCCNC[C@H](O)c3cccc(NS(=O)(=O)C4CCC4)c3)ccc12 | 1 |

Then there is this molecule:
Task: Fill blank: measured number of experimental animals matching Score 0.5 of the molecule Cc1n[nH]c2cc(OCCNC[C@H](O)c3cccc(NS(=O)(=O)c4cnn(C)c4)c3)ccc12 is ____.
Output: 1

###

A collection of compounds and their measured β2 receptor I.A.
# test.system: human β2-adrenergic receptor (Homo sapiens)
# Construct: expressed in transfected cells; host or cells: CHO (Chinese hamster ovary) cells, pcDNA3
# Sequence (P07550 whole entry): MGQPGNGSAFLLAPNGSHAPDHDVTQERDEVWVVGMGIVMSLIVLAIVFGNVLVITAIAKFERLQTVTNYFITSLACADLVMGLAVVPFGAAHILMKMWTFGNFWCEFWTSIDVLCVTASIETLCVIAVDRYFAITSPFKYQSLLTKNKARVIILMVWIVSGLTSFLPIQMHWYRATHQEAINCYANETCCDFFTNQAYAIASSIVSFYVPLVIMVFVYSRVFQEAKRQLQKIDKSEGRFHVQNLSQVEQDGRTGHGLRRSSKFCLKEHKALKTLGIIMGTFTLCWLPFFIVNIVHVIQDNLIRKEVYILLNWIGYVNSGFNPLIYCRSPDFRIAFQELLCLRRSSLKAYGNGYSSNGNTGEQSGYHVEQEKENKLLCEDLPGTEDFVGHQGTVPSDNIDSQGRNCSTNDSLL
# measurement.protocol: Test Case 3-B: human β2-adrenergic receptor agonist activity
# Format: cell-based
# particulars: Test Case 3-B; maximum response of isoproterenol = 100%
Please state the figure in %; there is no need to write the unit.

# annotated cases, reported β2 receptor I.A. shown
| compound | test.system | β2 receptor I.A. [%] |
| --- | --- | --- |
| COc1cccc(S(=O)(=O)Nc2cccc([C@@H](O)CNCCOc3ccc4c(OC)n[nH]c4c3)c2)c1 [ex43] | human β2-adrenergic receptor (Homo sapiens) | −5 |
| COc1n[nH]c2cc(OCCNC[C@H](O)c3cccc(NS(=O)(=O)c4ccsc4)c3)ccc12 [ex46] | human β2-adrenergic receptor (Homo sapiens) | −2 |
| COc1n[nH]c2cc(OCCNC[C@H](O)c3cccc(NS(=O)(=O)c4cccnc4)c3)ccc12 [ex44] | human β2-adrenergic receptor (Homo sapiens) | 5 |
| COc1n[nH]c2cc(OCCNC[C@H](O)c3cccc(NS(=O)(=O)c4cccc(Cl)c4)c3)ccc12 [ex42] | human β2-adrenergic receptor (Homo sapiens) | 0 |

Task: Fill blank: measured β2 receptor I.A. of the compound COc1n[nH]c2cc(OCCNC[C@H](O)c3cccc(NS(=O)(=O)c4cccs4)c3)ccc12 [ex45] is ____.
Output: 2

Task: Fill blank: measured β2 receptor I.A. of the compound COc1n[nH]c2cc(OCCNC[C@H](O)c3cccc(NS(=O)(=O)C4CC4)c3)ccc12 [ex47] is ____.
Output: 16

Task: Fill blank: measured β2 receptor I.A. of the compound COc1n[nH]c2cc(OCCNC[C@H](O)c3cccc(NS(=O)(=O)c4cccc(N)c4)c3)ccc12 [ex41] is ____.
Output: 5

###

A collection of molecules and their measured α1 receptor % of Control Agonist Response, Control; Norepinephrine
# test.system: human α1A-adrenergic receptor (Homo sapiens, UniProt P35348)
# Sequence (P35348 whole entry): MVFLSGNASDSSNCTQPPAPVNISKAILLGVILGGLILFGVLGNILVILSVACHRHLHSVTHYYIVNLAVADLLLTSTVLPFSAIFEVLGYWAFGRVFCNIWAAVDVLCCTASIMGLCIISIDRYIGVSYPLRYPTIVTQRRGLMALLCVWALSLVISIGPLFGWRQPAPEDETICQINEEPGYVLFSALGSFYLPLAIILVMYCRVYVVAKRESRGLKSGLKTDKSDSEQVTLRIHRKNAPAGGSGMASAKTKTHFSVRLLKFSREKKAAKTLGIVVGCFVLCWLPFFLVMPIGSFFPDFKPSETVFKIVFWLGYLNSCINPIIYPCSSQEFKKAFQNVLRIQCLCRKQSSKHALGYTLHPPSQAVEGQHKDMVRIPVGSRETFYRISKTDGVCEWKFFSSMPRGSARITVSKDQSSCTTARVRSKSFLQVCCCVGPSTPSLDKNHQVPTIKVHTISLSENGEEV
# measurement.protocol: Test Case 4-B: human α1A-adrenergic receptor agonist activity (Cerep cellular functional GPCR, alpha 1A)
# Format: cell-based
# Parameters: expressed in transfected cells
# particulars: concentration 10 μM, norepinephrine = 100%
Please state the figure in %; there is no need to write the unit.

# annotated cases, reported α1 receptor % of Control Agonist Response, Control; Norepinephrine shown
| molecule | test.system | recorded.measurement |
| --- | --- | --- |
| Nc1cccc(S(=O)(=O)Nc2cccc([C@@H](O)CNCCOc3ccc4c(C5CC5)n[nH]c4c3)c2)c1F [ex215] | human α1A-adrenergic receptor (Homo sapiens, UniProt P35348) | 0.1 |
| O=S(=O)(Nc1cccc([C@@H](O)CNCCOc2ccc3c(C(F)(F)F)n[nH]c3c2)c1)c1cccnc1 [ex186] | human α1A-adrenergic receptor (Homo sapiens, UniProt P35348) | 0.5 |

Task: Fill blank: measured α1 receptor % of Control Agonist Response, Control; Norepinephrine of the molecule Cc1n[nH]c2cc(OCCNC[C@H](O)c3cccc(NS(=O)(=O)c4cc(F)c(F)cc4F)c3)ccc12 [ex85] is ____.
Output: 0.1

Task: Fill blank: measured α1 receptor % of Control Agonist Response, Control; Norepinephrine of the molecule CCc1n[nH]c2cc(OCCNC[C@H](O)c3cccc(NS(=O)(=O)c4cn[nH]c4)c3)ccc12 [ex149] is ____.
Output: 7.3
